Recorded Kd by entry
# target_or_test_system: T1, human DLL3 (ACRO, DLL3-H52H4) (human, UniProt Q9NYJ7 27-492)
# T1 construct: Bought
# T1 sequence: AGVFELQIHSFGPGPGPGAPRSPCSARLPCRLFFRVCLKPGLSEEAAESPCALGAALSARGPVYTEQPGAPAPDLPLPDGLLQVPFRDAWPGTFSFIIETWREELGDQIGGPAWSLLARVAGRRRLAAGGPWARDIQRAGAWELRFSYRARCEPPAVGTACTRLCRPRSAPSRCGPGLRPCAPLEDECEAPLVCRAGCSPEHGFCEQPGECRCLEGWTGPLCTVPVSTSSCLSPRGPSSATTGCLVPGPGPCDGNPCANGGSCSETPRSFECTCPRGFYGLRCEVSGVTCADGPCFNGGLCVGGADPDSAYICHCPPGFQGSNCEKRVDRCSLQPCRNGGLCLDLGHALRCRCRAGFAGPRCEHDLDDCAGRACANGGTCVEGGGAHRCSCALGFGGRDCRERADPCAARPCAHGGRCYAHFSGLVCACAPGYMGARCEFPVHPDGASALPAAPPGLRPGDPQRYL
# assay_remarks: SPR Biacore 8K, Ab captured on Protein A
assay_endpoint: Kd (pM)

[
  {
    "binder": "hu110L1H1 (antibody, human IgG1, kappa, V domains shown) VH: EVQLVQSGAEVKKPGASVKVSCKASGYTFTDYYMNWVRQAPGQRLEWMGIINPYNGGTSYTQKFKGRVTITVDKSASTAYMELSSLRSEDTAVYYCARHFYDSSYLTYSTMDYWGQGTTVTVSS VL: DIVMTQSPDSLAVSLGERATINCKASENVGIFVSWYQQKPGQSPKLLIYGASNRYTGVPDRFSGSGSATDFTLTISSLQAEDVAVYYCGQSHSYPLTFGQGTKLEIKR",
    "unit_label": "pM",
    "reported_value": 68
  },
  {
    "binder": "hu6L2H12 (antibody, human IgG1, kappa, V domains shown) VH: EVQLVQSGSELKKPGASVKVSCKASGYTFTDYYMNWVRQAPGQGLEWMGIINPYSGVTIYNHKFKGRFALSVDKSSNTAYLQISSLKAEDTAVYYCARQDSLLDYAMDYWGQGTTVTVSS VL: DIQMTQSPSSLSASVGDRVTITCHASQGISGNMGWLQQKPGKAPKGLIYHGANLEDGVPSRFSGSGSGADYTLTISSLQPEDFATYYCVQYAQFPYTFGGGTKVEIKR",
    "unit_label": "pM",
    "reported_value": 461
  },
  {
    "binder": "hu6L3H2 (antibody, human IgG1, kappa, V domains shown) VH: EVQLVQSGAEVKKPGASVKVSCKASGYTFTDYYMNWVRQAPGQRLEWMGIINPYSGVTIYNHKFKGRVTLTVDKSANTAYMELSSLRSEDTAVYYCARQDSLLDYAMDYWGQGTTVTVSS VL: DIQMTQSPSSLSASVGDRVTITCHASQGISGNMGWLQQKPGKSFKGLIYHGANLEDGVPSRFSGSGSGADYTLTISSLQPEDFATYYCVQYAQFPYTFGGGTKVEIKR",
    "unit_label": "pM",
    "reported_value": 1590
  }
]
